- System: P. aeruginosa PA01
- run description: Combined antibacterial effect with drug efflux pump inhibitor PAβN, broth microdilution MIC
- Format: cell-based
- run conditions: P. aeruginosa PA01, without PAβN
experimental readout: MIC value P. aeruginosa PA01 PAβN − (µg/mL)

molecule="C[C@H]1COc2c(N3CCN(C)CC3)c(F)cc3c(=O)c(C(=O)O)cn1c23 [Levofloxacin, levofloxacin, reference compound]" experimental_readout="MIC value P. aeruginosa PA01 PAβN −" obs_value=0.5
molecule=CNC1CN(c2c(F)cc3c(=O)c(C(=O)O)cn(-c4cc(N)c(F)cc4CO)c3c2C)C1 experimental_readout="MIC value P. aeruginosa PA01 PAβN −" obs_value=0.25
molecule=CNC1CN(c2c(F)c(C)c3c(=O)c(C(=O)O)cn(-c4cc(N)c(F)cc4CO)c3c2Cl)C1 experimental_readout="MIC value P. aeruginosa PA01 PAβN −" obs_value=0.12

a: Cc1c(F)c(N2CC(N)C2)c(C)c2c1c(=O)c(C(=O)O)cn2-c1cc(N)c(F)cc1CO
b: CO/N=C(\C(=O)N[C@@H]1C(=O)N2C(C(=O)[O-])=C(C[N+]3(C)CCCC3)CS[C@H]12)c1csc(N)n1 [Cefepime, cefepime, reference compound]
Look at a and b . Which one has the lower recorded MIC value P. aeruginosa PA01 PAβN − number? # reply format: chosen label
a

// data source = patent US10532984B2
